- Test system: platelet aggregation in response to collagen (human platelet-rich plasma)
- test protocol: Inhibition of collagen-induced platelet aggregation in vitro (human platelet-rich plasma, photometric aggregometer)
- Type: cell-based
- condition notes: 0.05 h, final concentration 100 μM, human PRP, 37°, 3 min incubation before collagen, just-maximal collagen dose, read-out: % Inhibition of the platelet aggregation response to collagen
Where a name gives a salt, the structure may show the parent alone.
readout label: inhibition at 100 µM (%)
Numbers only here, please. The scale is %.

Complete the entry with inhibition at 100 µM for `O=c1c2cc(Cl)ccc2sn1-c1ncccn1` 100

***
Please look at this molecule and report its inhibition at 100 µM: `O=c1c2ccccc2sn1CNc1ccncc1` 23

State, in one line, measured inhibition at 100 µM of `O=c1c2ccccc2sn1CNc1ccccn1` 100

Give reported inhibition at 100 µM value for `COc1cc2sn(CCc3ccccn3)c(=O)c2cc1OC` 100

Provide only the value of recorded inhibition at 100 µM for `COc1cc2sn(CCN3CCCC3)c(=O)c2cc1OC` 91

Identify the reported inhibition at 100 µM for the following entry. O=c1c2ccccc2sn1CCc1ccccn1 [Example 9, hydrochloride] 100

Output measured inhibition at 100 µM for this item: Cc1ccc2sn(CCc3ccccn3)c(=O)c2c1 [Example 10, hydrochloride] 100

Consider the molecule O=c1c2ccccc2sn1CCN1CC2CCC(CC2)C1 [Example 13, hydrochloride] . State its measured inhibition at 100 µM. 100

Return inhibition at 100 µM for the following molecule: `COc1cc2sn(CCN3CC4CCC(CC4)C3)c(=O)c2cc1OC` 92

Determine its reported inhibition at 100 µM: `O=c1c2ccccc2sn1CCn1sc2ccccc2c1=O` 91
